tested on: Acinetobacter baumannii; test: Antimicrobial activity against OXA-23/OXA-58 producing Acinetobacter baumannii SR27323 in presence of human apo-transferrin by broth microdilution method; assay type: functional
The entries below come with measured MIC values attached.
Metric Name: MIC (µg/mL)

1. CC(C)(O/N=C(\C(=O)N[C@@H]1C(=O)N2C(C(=O)[O-])=C(C[N+]3(CCNC(=O)c4ccc(O)c(O)c4F)CCCC3)CS[C@H]12)c1csc(N)n1)C(=O)O ... 0.5
2. CO/N=C(\C(=O)N[C@@H]1C(=O)N2C(C(=O)[O-])=C(C[N+]3(C)CCCC3)CS[C@H]12)c1csc(N)n1 ... 16
3. CC(C)(O/N=C(\C(=O)N[C@@H]1C(=O)N2C(C(=O)[O-])=C(C[N+]3(CCNC(=O)c4ccc(O)c(O)c4Cl)CCCC3)CS[C@H]12)c1nc(N)sc1Cl)C(=O)O ... 2
